Values were extracted from ChEMBL document CHEMBL1153455.

assay: cells; details: Homo sapiens, HEK293
Description: Antagonist activity at human D2 like receptor expressed in HEK293 cells assessed as inhibition of quinpirole-stimulated mitogenesis
Endpoint Label: IC50 (nM)

Examples with answers:
Compound: O=C(NCC(O)CCN1CCN(c2cccc(Cl)c2Cl)CC1)c1cc2ccccc2[nH]1 (configuration not stated)
IC50 [nM]: 340
//
Compound: O=C(NCCCCN1CCN(c2cccc(Cl)c2Cl)CC1)c1cc2cc(I)ccc2o1
IC50 [nM]: 1030
//
Compound: COc1ccccc1N1CCN(CC(O)CCNC(=O)c2cc3ccccc3[nH]2)CC1 (configuration not stated)
IC50 [nM]: 427
//
Compound: COc1ccccc1N1CCN(CCCCNC(=O)c2cc3ccccc3s2)CC1
IC50 [nM]: 21.4
//
Compound: COc1ccccc1N1CCN(CCCCNC(=O)c2cc3cc(I)ccc3o2)CC1
IC50 [nM]: 170

[a] O=C(NC/C=C/CN1CCN(c2cccc(Cl)c2Cl)CC1)c1cc2ccccc2o1
[b] CCCOc1ccccc1N1CCN(CC(O)CCNC(=O)c2cc3ccccc3[nH]2)CC1 (configuration not stated)
[c] COc1ccccc1N1CCN(CC(O)CCNC(=O)c2cc3cc(I)ccc3o2)CC1 (configuration not stated)
[d] COc1ccccc1N1CCN(CC(O)CCNC(=O)c2cc3cc(F)ccc3[nH]2)CC1 (configuration not stated)
Exam item: In this exercise, place the 4 compounds in ascending sequence of their recorded IC50. Sort and list the labels as requested.
Marked response: a, b, d, c

###

target: D(3) dopamine receptor (Homo sapiens, UniProt P35462); test: Agonist activity at human D3 receptor expressed in HEK293 cells assessed as stimulation of mitogenesis relative to quinpirole; format: functional, cell-based; set-up: concentration or dose not given beside the values
Sequence (P35462 whole entry): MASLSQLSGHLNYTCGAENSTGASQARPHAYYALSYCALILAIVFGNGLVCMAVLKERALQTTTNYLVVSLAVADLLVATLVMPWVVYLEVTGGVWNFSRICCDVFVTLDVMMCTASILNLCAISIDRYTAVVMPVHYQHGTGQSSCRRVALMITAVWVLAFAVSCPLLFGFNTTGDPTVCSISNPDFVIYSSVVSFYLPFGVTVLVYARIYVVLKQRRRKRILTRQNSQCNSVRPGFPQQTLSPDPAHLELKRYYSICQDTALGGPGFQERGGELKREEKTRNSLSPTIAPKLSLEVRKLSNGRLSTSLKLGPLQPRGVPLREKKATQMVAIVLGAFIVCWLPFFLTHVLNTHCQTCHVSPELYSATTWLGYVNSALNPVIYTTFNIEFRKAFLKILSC
Endpoint Label: Activity (%)

Some solved entries appear below for comparison.
Molecule: COc1ccc2[nH]c(C(=O)NCCC(O)CN3CCN(c4cccc(Cl)c4Cl)CC3)cc2c1 (stereo not given)
Tested Target: D(3) dopamine receptor (Homo sapiens, UniProt P35462)
Measure Unit: %
Data Value: 34.9
//
Molecule: O=C(NCCC(O)CN1CCN(c2cccc(Cl)c2Cl)CC1)c1cc2ccccc2o1 (stereo not given)
Tested Target: D(3) dopamine receptor (Homo sapiens, UniProt P35462)
Measure Unit: %
Data Value: 22.6

[a] O=C(NCCC(O)CN1CCN(c2cccc(Cl)c2Cl)CC1)c1cc2cc(I)ccc2[nH]1 (stereo not given)
[b] O=C(NCC[C@H](O)CN1CCN(c2cccc(Cl)c2Cl)CC1)c1cc2ccccc2[nH]1
Exam item: Of a and b , whose reported Activity is numerically smaller? Record your answer as the label of the chosen record.
Marked response: a
(a: 26%, b: 42.2%)

###

Record set of Ki for target or system D(4) dopamine receptor (Homo sapiens, UniProt P21917).
Endpoint Label: Ki (nM)

Below, each entry is followed by its recorded Ki result.
Compound: COc1ccccc1N1CCN(CC(O)CCNC(=O)c2cc3cc(I)ccc3o2)CC1 (stereo not drawn)
Data Value: 1290
--
Compound: COc1ccccc1N1CCN(CCCCNC(=O)c2cc3ccccc3[nH]2)CC1
Data Value: 476
--
Compound: O=C(NCCCCN1CCN(c2cccc(Cl)c2Cl)CC1)c1cc2cc(I)ccc2o1
Data Value: 1720

[a] COc1ccccc1N1CCN(CCCCNC(=O)c2cc3cc(I)ccc3o2)CC1
[b] COc1ccccc1N1CCN(CC(O)CCNC(=O)c2cc3ccccc3o2)CC1 (stereo not drawn)
[c] O=C(NCC(O)CCN1CCN(c2cccc(Cl)c2Cl)CC1)c1cc2ccccc2[nH]1 (stereo not drawn)
Exam item: Sort by Ki, descending. Thanks in advance for listing the labels in the requested order.
Marked response: b, c, a
(b: 2140 nM, c: 1040 nM, a: 335 nM)
